System: bFGF-induced corneal neovascularization
experimentSummary: Corneal neovascularization, bFGF pellet in mouse cornea
Format: in vivo, C57BL6 male mice
conditionsUsed: pellet with 80 ng bFGF and 44 μg compound, mouse cornea; footnote: units of 1/12 of a circle (clock hours)
reportedProperty: ANTI-ANGIOGENIC EFFECT Sector Size (clock hours)
Field format: number, assumed clock hours, no unit text.

// worked examples, ANTI-ANGIOGENIC EFFECT Sector Size included
Query :: ANTI-ANGIOGENIC EFFECT Sector Size for O=C1C(c2ccccc2)=C(c2ccccc2)C(c2ccccc2)=C1c1ccccc1 [TPCPD, tetraphenylcyclopentadienone, reference compound] ?
Result :: 3.72

Query :: ANTI-ANGIOGENIC EFFECT Sector Size for `O=C(/C=C/c1ccc(O)cc1)CC(=O)/C=C/c1ccc(O)cc1` ?
Result :: 1.7

Query :: ANTI-ANGIOGENIC EFFECT Sector Size for COc1cc(CCC(=O)CC(=O)CCc2ccc(O)c(OC)c2)ccc1O [Tetrahydrocurcumin, tetrahydrocurcumin] ?
Result :: 2.43

Query :: ANTI-ANGIOGENIC EFFECT Sector Size for `COc1cc(/C=C/C(=O)CC(=O)/C=C/c2ccc(O)c(OC)c2)ccc1O` ?
Result :: 1.17

Now, please, on to the next molecule.
Query :: ANTI-ANGIOGENIC EFFECT Sector Size for `COc1cc(/C=C/C(O)=C/C(=O)/C=C/c2ccc(O)cc2)ccc1O` ?
Result :: 0.71

---

System: bFGF-induced corneal neovascularization
experimentSummary: Corneal neovascularization, bFGF pellet in mouse cornea
Type: in vivo, C57BL6 male mice
conditionsUsed: pellet with 80 ng bFGF and 44 μg compound, mouse cornea
reportedProperty: ANTI-ANGIOGENIC EFFECT Vessel Length (mm.)
Field format: number, assumed mm., no unit text.

// worked examples, ANTI-ANGIOGENIC EFFECT Vessel Length included
Query :: Hi! What's the reported ANTI-ANGIOGENIC EFFECT Vessel Length for COc1cc(CCC(=O)CC(=O)CCc2ccc(O)c(OC)c2)ccc1O [Tetrahydrocurcumin, tetrahydrocurcumin] on bFGF-induced corneal neovascularization?
Result :: 0.74

Query :: Hi! What's the reported ANTI-ANGIOGENIC EFFECT Vessel Length for `O=C(/C=C/c1ccc(O)cc1)CC(=O)/C=C/c1ccc(O)cc1` on bFGF-induced corneal neovascularization?
Result :: 0.88

Query :: Hi! What's the reported ANTI-ANGIOGENIC EFFECT Vessel Length for O=C1C(c2ccccc2)=C(c2ccccc2)C(c2ccccc2)=C1c1ccccc1 [TPCPD, tetraphenylcyclopentadienone, reference compound] on bFGF-induced corneal neovascularization?
Result :: 1.16

Query :: Hi! What's the reported ANTI-ANGIOGENIC EFFECT Vessel Length for `COc1cc(/C=C/C(O)=C/C(=O)/C=C/c2ccc(O)cc2)ccc1O` on bFGF-induced corneal neovascularization?
Result :: 0.26

Now, please, on to the next molecule.
Query :: Hi! What's the reported ANTI-ANGIOGENIC EFFECT Vessel Length for `COc1cc(/C=C/C(=O)CC(=O)/C=C/c2ccc(O)c(OC)c2)ccc1O` on bFGF-induced corneal neovascularization?
Result :: 0.59
